# subjectOfTest: T1, V3-1 Fab
# T1 construct: soluble Fab in SPR
# procedureText: phage competition ELISA, ECD in solution
assayEndpoint: IC50 (nM)
Give the value in nM but do not write nM after it.

# lookup: IC50 of mouse BR3 extracellular domain (receptor, also called mBR3-ECD; mBR-ECD) MGARRLRVRSQRSRDSSVPTQCNQTECFDPLVRNCVSCELFHTPDTGHTSSLEPGTALQPQEGS
5.4

Values from patent US20100280227A1
